- protocol summary: Inhibition of Protein phosphatase 2B
- Parameters: species or system Homo sapiens
- run conditions: read-out: Ki app
measured property: pKi
Numbers only, as −log10 of the molar value.

Below, each entry is followed by its recorded pKi result.
compound | pKi
O=C(OC[C@H]1C[C@@H]2O[C@H]1[C@H]1C(=O)OC(=O)[C@H]12)c1ccc(Oc2ccccc2)cc1 | 5.85
O=C(OC[C@H]1C[C@@H]2O[C@H]1[C@H]1C(=O)OC(=O)[C@H]12)c1cccc(Oc2ccccc2)c1 | 5.74
O=C(OC[C@H]1C[C@@H]2O[C@H]1[C@H]1C(=O)OC(=O)[C@H]12)c1ccccc1 | 4.96
O=C(O)[C@@H]1[C@H](C(=O)O)[C@H]2CC[C@@H]1O2 [ENDOTHALL] | 4.94
O=C1OC(=O)[C@@H]2[C@H]1[C@@H]1O[C@H]2C[C@@H]1COC(=O)[C@@H]1C[C@H]1c1ccccc1 | 6.30
O=C(Cc1c[nH]c2ccccc12)OC[C@H]1C[C@@H]2O[C@H]1[C@H]1C(=O)OC(=O)[C@H]12 | 5.70

Turning now to a further record.
Data request: Consider the compound "O=C(CCc1ccccc1)OC[C@H]1C[C@@H]2O[C@H]1[C@H]1C(=O)OC(=O)[C@H]12" and give its measured pKi.
Data returned: 5.43
